System: Pseudomonas aeruginosa PA14
testName: Inhibition of Pseudomonas aeruginosa PA14 PqsH transposon mutant assessed as extracellular level of HHQ at 250 uM after 16 hrs
# reported inhibition; entries follow

// below: answered compounds
compound	inhibition
O=C(O)/C=C/c1ccsc1	< 10%
COC(=O)/C=C/c1ccc(O)cc1	< 10%
O=C(O)/C=C/c1ccc(O)cc1	< 10%

q: Consider the compound O=C(CCc1ccc(O)c(O)c1)OCc1ccccc1 . State its measured inhibition.
a: < 10%

q: State, in one line, measured inhibition of O=C(O)CCc1ccc(O)c(O)c1 [DIHYDROCAFFEIC ACID]
a: < 10%

q: Determine its reported inhibition: O=C(O)/C=C/c1ccccc1
a: < 10%

q: # return recorded inhibition for input COC(=O)CCc1ccc2c(c1)OCO2
a: < 10%

q: Using known records, supply inhibition for COC(=O)/C=C/c1ccc(F)c(F)c1
a: < 10%

q: Tell me measured inhibition for CNC(=O)CCc1ccc(O)c(O)c1 please.
a: < 10%

###

experimentalTarget: 2-heptyl-4(1H)-quinolone synthase PqsD (Pseudomonas aeruginosa)
testName: Inhibition of Pseudomonas aeruginosa recombinant PqsD expressed in Escherichia coli BL21 (lambdaDE3) using ACoA/beta-ketodecanoic acid as substrate after 10 mins
IC50 under 20 µM gets criterion met, anything at or over 20 µM gets criterion not met.

q: # check: IC50 < 20 µM for COC(=O)Cc1ccc(O)c(O)c1
a: criterion not met

q: Hello, is IC50 of the following compound strictly smaller than 20 µM? COC(=O)CCCc1ccc(O)c(O)c1
a: criterion met

q: Please determine if O=C(O)CCc1ccc(O)c(O)c1 [DIHYDROCAFFEIC ACID] is below 20 µM in terms of IC50.
a: criterion not met

q: Find out if reported IC50 for COC(=O)/C=C/c1ccc(O)c(O)c1 [METHYLCAFFEATE] is less than 20 µM
a: criterion not met

q: Bench note: check whether CCOC(=O)CCc1ccc(O)c(O)c1 shows IC50 below 20 µM
a: criterion met

q: In plain terms, does CC(C)OC(=O)CCc1ccc(O)c(O)c1 come in under 20 µM for IC50?
a: criterion met

q: Consider the compound O=C(CCc1ccc(O)c(O)c1)OCc1ccccc1 . Is its IC50 strictly less than 20 µM?
a: criterion met

q: Dear colleague, could you confirm whether IC50 of COC(=O)CCc1ccc(O)c(O)c1 falls below 20 µM? Thanks.
a: criterion not met

###

experimentalTarget: 2-heptyl-4(1H)-quinolone synthase PqsD (Pseudomonas aeruginosa) (UniProt A0A0C7ACN7)
Sequence (A0A0C7ACN7 as listed by the source): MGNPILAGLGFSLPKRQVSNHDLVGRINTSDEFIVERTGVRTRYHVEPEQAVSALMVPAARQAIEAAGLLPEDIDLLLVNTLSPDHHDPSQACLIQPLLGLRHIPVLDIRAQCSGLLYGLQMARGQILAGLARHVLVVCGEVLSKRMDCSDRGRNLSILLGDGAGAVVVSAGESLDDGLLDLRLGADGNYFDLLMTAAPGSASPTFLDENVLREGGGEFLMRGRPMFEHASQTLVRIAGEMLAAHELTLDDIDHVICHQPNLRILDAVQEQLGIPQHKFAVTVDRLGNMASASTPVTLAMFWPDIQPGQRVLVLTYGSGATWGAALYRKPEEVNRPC
testName: Inhibition of Pseudomonas aeruginosa recombinant PqsD expressed in Escherichia coli BL21 (lambdaDE3) using ACoA/beta-ketodecanoic acid as substrate at 50 uM after 10 mins
Listed next: entries and their corresponding inhibition.

These solved cases illustrate the format of a correct answer.
compoundSmiles	experimentalTarget	measuredResult
O=C(O)/C=C/c1ccccc1	2-heptyl-4(1H)-quinolone synthase PqsD (Pseudomonas aeruginosa) (UniProt A0A0C7ACN7)	33%
COC(=O)CCc1ccc(N)cc1	2-heptyl-4(1H)-quinolone synthase PqsD (Pseudomonas aeruginosa) (UniProt A0A0C7ACN7)	< 10%
COC(=O)CCc1ccc(O)cc1	2-heptyl-4(1H)-quinolone synthase PqsD (Pseudomonas aeruginosa) (UniProt A0A0C7ACN7)	< 10%
COC(=O)CCc1ccc(C)cc1	2-heptyl-4(1H)-quinolone synthase PqsD (Pseudomonas aeruginosa) (UniProt A0A0C7ACN7)	< 10%

Could you now look at the following compound, please?
q: Tell me measured inhibition for COC(=O)/C=C/c1ccc(F)c(F)c1 please.
a: < 10%
